Source listed as ChEMBL document CHEMBL4513216.

test: Toxicity liver stage against HepG2, at 10uM; format: cell-based; parameters: test concentration 10 uM, cell line HepG2-A16-CD81EGFP; details: human, HepG2-A16-CD81EGFP cells; read-out: INHIBITION
Reported endpoint: cytotoxicity at 10 µM (%)

# Compound, Readout unit, Measured value
measured = [
    ("CCCc1cc(N2CCCCC2Cn2cc(C)cn2)n2ncnc2n1 (stereo unspecified)", "%", -0.554),
    ("CCC(C)C(=O)N(Cc1ccccn1)C1CC1 (stereo unspecified)", "%", -44.5),
    ("NC(=O)COc1ccc(CNC(=O)CN2CCc3ccccc32)cc1", "%", -4.07),
    ("COc1ccc(C2(C(=O)NCc3c(C)ncc4c3CCNC4)CC2)cc1", "%", -50.7),
    ("CCc1cc(NC(=O)c2cccc(OCC(F)(F)F)n2)[nH]n1", "%", -1.42),
    ("Cn1cc(C(C)(O)CNc2ccc(C(F)(F)F)cn2)cn1 (stereo unspecified)", "%", -44.3),
    ("Cc1csc(Nc2cc(C3CCCCN3C)nc(C)n2)n1 (stereo unspecified)", "%", 4.73),
    ("O=C(CN1CCCc2c(F)cc(Br)cc21)N1CCN(C(=O)C2CC2)CC1", "%", -5.06),
    ("CCc1nc(CN(C)C(=O)C2CC(=O)N(c3cccc(O)c3)C2)no1 (stereo unspecified)", "%", -10.2),
    ("CSCCCN1CCC[C@]2(C(=O)O)CN(c3cnccn3)CC[C@@H]12", "%", 8.26),
    ("Cc1nn(CCC(=O)N2CCCC(OCc3cccnc3)C2)c(C)c1C (stereo unspecified)", "%", -5.47),
]
